Assay Protocol: Acute toxicity in mice, oral LD50 (method of Miller & Tainter)
Reported Conditions: mouse, in vivo, mortality determined 48 hours after administration
Quantity Measured: LD50 at 48 h

* C=C(CC(=O)c1ccc(-c2ccccc2Cl)cc1)C(=O)O | 1500 mg/kg
* CC(=CC(=O)c1ccccc1)C(=O)Nc1cccc(C(F)(F)F)c1 | > 1000 mg/kg
* CC(=CC(=O)c1ccc(-c2ccccc2Cl)cc1)C(=O)O | 2370 mg/kg
* C=C(CC(=O)c1ccc(-c2ccccc2Cl)cc1)C(=O)OC | > 1000 mg/kg
* C=C(CC(=O)c1ccc(-c2ccccc2)cc1)C(=O)O | > 2000 mg/kg

Field: next compound
GET /values?readout=LD50 at 48 h&item= C=C(CC(=O)c1ccc(F)cc1)C(=O)O
1400 mg/kg

====

Assay Protocol: Solubility properties
Type: physicochemical
Reported Conditions: N-methyl pyrrolidone
Listed here: items and their measured Solubility in N-methyl pyrrolidone.
The response must be a number in % with no trailing unit.

The following compounds have reported results that may help.
* CC(=CC(=O)c1ccc(-c2ccccc2)cc1)C(=O)O | 20
* C=C(CC(=O)c1ccc(-c2ccc(Br)cc2)cc1)C(=O)O | 25
* C=C(CC(=O)c1ccc(-c2ccc(Cl)cc2)cc1)C(=O)O | 30

GET /values?readout=Solubility in N-methyl pyrrolidone&item= C=C(CC(=O)c1ccc(Cl)cc1)C(=O)O
25

And what about the compound CC(=CC(=O)c1ccccc1)C(=O)Nc1cccc(C(F)(F)F)c1 ?
40

====

Assay Protocol: Solubility properties
Type: physicochemical
Reported Conditions: ethyl alcohol / ethanol / alcohol
Listed here: items and their measured Solubility in ethyl alcohol.
The response must be a number in % with no trailing unit.

The following molecules have reported results that may help.
* C=C(CC(=O)c1ccc(F)cc1)C(=O)O | 20
* C=C(CC(=O)c1ccc(C2CCCCC2)cc1)C(=O)O | 3

GET /values?readout=Solubility in ethyl alcohol&item= C=C(CC(=O)c1ccc(-c2ccccc2Cl)cc1)C(=O)O
1

And what about the molecule C=C(CC(=O)c1ccc(Cl)cc1)C(=O)O ?
3
